Molecular target: huNav1.7α (human, UniProt Q15858 1-1988)
Assay: cell-based or functional assay
2-pulse IC50 [M], P2 values by entry
Use M as the unit, but write only the number.

I am curious: what 2-pulse IC50 [M], P2 value has been reported for F010300684 (VHH, vs F0103275B05: S27P, I28V, I31W, N53P, N93R, T101I) VHH: EVQLVESGGGLVQPGGSLRLSCAASGPVFNWNSMAWYRRAPGKQRELVASSTPGGSTNYADSVKGRFTISRDNAKRVYLQMNSLTPEDTAVYYCRALLQPSIYDISRIYWGQGTLVTVSS ?
2e-06

Fill in the blank: the reported 2-pulse IC50 [M], P2 of F010300468 (VHH, vs F0103275B05: N93R; also called F0103275B05(N93R)+FLAG3-HIS6; F103275B05(N93R)) VHH: EVQLVESGGGLVQPGGSLRLSCAASGSIFNINSMAWYRRAPGKQRELVASSTNGGSTNYADSVKGRFTISRDNAKRVYLQMNSLTPEDTAVYYCRALLQPSIYDISRTYWGQGTLVTVSS is ____.
4e-06

Quick check: 2-pulse IC50 [M], P2 of F010300659 (VHH, also called F0103275B05(S27P, I28V, S50Y, N53P, G55W, S56D, T57W, N93R, A94W)+FLAG3-HIS6) VHH: EVQLVESGGGLVQPGGSLRLSCAASGPVFNINSMAWYRRAPGKQRELVAYSTPGWDWNYADSVKGRFTISRDNAKRVYLQMNSLTPEDTAVYYCRWLLQPSIYDISRTYWGQGTLVTVSS ?
8e-07

If you can, please state the reported 2-pulse IC50 [M], P2 value of F010300477 (VHH, vs F0103275B05: A94W) VHH: EVQLVESGGGLVQPGGSLRLSCAASGSIFNINSMAWYRRAPGKQRELVASSTNGGSTNYADSVKGRFTISRDNAKRVYLQMNSLTPEDTAVYYCNWLLQPSIYDISRTYWGQGTLVTVSS .
2e-06
